# assayComment: qHTS Assay for Lipid Storage Modulators (AID 1519)
# details: Drosophila S3 cells, BODIPY lipid droplet/cell ratio, laser cytometry; measured here: lipid channel max response; cells loaded with oleic acid
# Procedure: NIH Molecular Libraries Probe Production Centers Network [MLPCN] NIH Chemical Genomics Center [NCGC] Assay Submitter (PI): Beller, Mathias; Max-Planck-Institut fur Biophysikalische Chemie […] We dispensed 4 uL of cells at 1.25 x 10^6 cells/mL into LoBase Aurora COC 1,536-well plates (black walled, clear bottom) with a bottle-valve solenoid-based dispenser (Aurora) to obtain 5,000 cells/well. […] The ratio of the total intensity in PMT channel 1 over total intensity of channel 3 was also calculated. […]
Inconclusive results are not listed.
measuredMetric: max response (%)
API: value field is a number in %; no unit string.

// worked examples, max response included
compound	unitOfMeasure	max response
CN1CCN(c2ncc3ncc(=O)n(C4CC4)c3n2)CC1	%	-12.9
Cc1noc(C)c1-c1ccc2ncnc(NCc3cccnc3)c2c1	%	6
CC(=O)[C@@]1(O)CC[C@H]2C3CCC4=CC(=O)CC[C@]4(C)C3CC[C@@]21C (stereo partly specified)	%	-12.4
COc1ccc2[nH]cc(CCNc3ncnc4ccc(-c5cccnc5)cc34)c2c1	%	-9.11
O=C(c1cc(C(F)(F)F)cc(C(F)(F)F)c1)N1CCC[C@@]2(CCN(Cc3ccncc3)C2)C1	%	28.8

Now, please, on to the next compound.
Entry `COc1ccc(-n2c(=O)c(-c3ccc(F)cc3)nc3cnc(N4CCOCC4)nc32)cc1` : reported max response = ? 4.35

----------
# assayComment: qHTS Assay for Lipid Storage Modulators (AID 1519)
# details: Drosophila S3 cells, BODIPY lipid droplet/cell ratio, laser cytometry; measured here: cell count channel max response; cells loaded with oleic acid
Records with an inconclusive call do not appear.
Rule: max response under 10% gives rule not met, otherwise rule met.

chemicalSmiles	assignedLabel
COc1ccc(Oc2ncc3nc(-c4cccs4)c(=O)n(CCC#N)c3n2)cc1	rule met
CN(C)c1ccc(-c2cc(-n3ccnc3)ncn2)cc1	rule met
CN1CCN(c2ncncc2-c2ccc(C(=O)N(C)C)cc2)CC1	rule met

Test whether the molecule `CC(=O)NCCNc1cc(-c2ccccc2CN(C)C)ncn1` records max response of 10% or higher. rule met

I'd appreciate it if you could say whether `O=C(c1csnn1)N1CCC2(CC1)CCN(c1ccccc1)CC2` has max response at least equal to 10%. rule not met

----------
# assayComment: qHTS Assay for Lipid Storage Modulators (AID 1519)
# details: Drosophila S3 cells, BODIPY lipid droplet/cell ratio, laser cytometry; measured here: cell count channel max response; cells loaded with oleic acid
Records with an inconclusive call do not appear.
measuredMetric: max response

// known answers, use as guide
chemicalSmiles	max response
CN(C)Cc1ccccc1-c1nc(N(C)C)c2ccccc2n1	9.81%
Cc1ccccc1-c1nccc(NCc2cccs2)n1	-2.46%
CC(=O)N1CCC[C@@]2(CCN(Cc3ccccc3)C2)C1	8.55%
COc1ccc(CNc2ncncc2-c2cccnc2)c(OC)c1	18.2%
COc1ccc(Oc2ncc3nc(-c4cn(C)c5ccccc45)c(=O)n(C4CC4)c3n2)cc1	3.6%
Cc1nc2cnc(Oc3ccccc3)nc2n(C)c1=O	14.9%
CN(C)c1ncnc2ccc(-c3cccnc3)cc12	4.52%
COCC(=O)N1CCC2(CC1)CN(C(=O)Nc1cccc(F)c1)C2	17.5%

Would you kindly share the measured max response for `O=c1c(-c2cc(F)cc(F)c2)nc2cnc(N3CCNCC3)nc2n1-c1ccccc1` ? 3.1%

What value of measured max response is listed for `CN1CCCC2(CCN(C(=O)c3cnccn3)CC2)C1` ? 2.95%

Name the reported max response value associated with the compound `O=C(c1ccco1)N1CCC[C@@]2(CCN(Cc3nccs3)C2)C1` 5.76%

Quick one: max response for `O=C(c1ccncc1)N1CCC2(CC1)CN(c1ccccc1)C2` ? 9.42%

----------
# assayComment: Vero-766 cells viability qHTS against the NCATS CANVASS Library: Counterscreen for Zika virus inhibition assay (AID 1347394); further: nearly all actives have a fitted effect of over 60% in size
# details: Vero 766 viability, CellTiter-Glo luminescence, 72 h; series mostly up to 46.1 µM
Results filed as inconclusive are left out. Calls of active or inactive are those of the source. Calls come from the whole dose curve; as a rule, active = well fitted cell-killing curve with a large enough effect; inconclusive = small, poorly fitted or top-dose-only effect; inactive = flat fitted curve, though single readings scatter.
Give one outcome, nothing more. List: T (active), F (inactive)

Check out these entries, answers already filled in.
molecule	assignedLabel
COc1ccc(-c2oc3cc(OC)cc(OC)c3c(=O)c2O)cc1	F
C/C=C(/C)c1c(Cl)c(O)c(C)c2c1Oc1c(Cl)c(O)c(Cl)c(C)c1C(=O)O2	T
CC(C)=CCC/C(C)=C/Cc1cc([C@@H]2CC(=O)c3c(cc(O)c(CC=C(C)C)c3O)O2)ccc1O	F
C[C@H](c1cnc(N)[nH]1)c1ccc(O)c2[nH]cc(-c3cnc(-c4c[nH]c5ccccc45)c(=O)[nH]3)c12	F
C/C=C/[C@H]1[C@H]2C(=O)c3c(O)c(C)c(O)c(C)c3[C@]1(C(=O)O)C(=O)C=C2C	F
C/C(=C\CC[C@@H](C)[C@H]1CC[C@]2(C)C3=CCC4C(C)(C)[C@@H](O)C[C@@H](O)[C@]4(C)C3[C@H](O)C[C@@]12C)CO (some centres not stated)	T

Look up the recorded call for `CC(C)C[C@@H]1c2c(O)c(C=O)c(O)c(C=O)c2O[C@]2(C)C=C[C@@H](C(C)C)C[C@H]12` in this test. F

Give the logged outcome of this assay for the following molecule: `COc1ccc2[nH]c3c(c2c1)CCN1C[C@H]2C[C@@H](OC(=O)c4cc(OC)c(OC)c(OC)c4)[C@H](OC)[C@@H](OC)[C@H]2C[C@H]31` F

Which outcome was assigned to `C=C[C@]1(C)CC[C@@H]([C@H](C)C(=O)/C=C/C(C)(C)O)O1` in this test? F

Please state the recorded outcome for this molecule: `COC(=O)[C@@]12Oc3cccc(O)c3C(O)=C1C(=O)C[C@H](C)[C@H]2O` F

Please state the recorded outcome for this molecule: `C=C[C@@]1(C)CC[C@@H]([C@H](C)C(=O)/C=C/C(C)(C)O)O1` F

So what was the verdict on `C=C(C)C(=O)O[C@H]1C[C@@]2(C)OC(=CC2=O)/C(C)=C\[C@H]2OC(=O)C(=C)[C@H]12` in this test? T

----------
# assayedTarget: Thyrotropin-releasing hormone receptor (Homo sapiens) (UniProt P34981)
# Sequence (P34981 whole entry, looked up): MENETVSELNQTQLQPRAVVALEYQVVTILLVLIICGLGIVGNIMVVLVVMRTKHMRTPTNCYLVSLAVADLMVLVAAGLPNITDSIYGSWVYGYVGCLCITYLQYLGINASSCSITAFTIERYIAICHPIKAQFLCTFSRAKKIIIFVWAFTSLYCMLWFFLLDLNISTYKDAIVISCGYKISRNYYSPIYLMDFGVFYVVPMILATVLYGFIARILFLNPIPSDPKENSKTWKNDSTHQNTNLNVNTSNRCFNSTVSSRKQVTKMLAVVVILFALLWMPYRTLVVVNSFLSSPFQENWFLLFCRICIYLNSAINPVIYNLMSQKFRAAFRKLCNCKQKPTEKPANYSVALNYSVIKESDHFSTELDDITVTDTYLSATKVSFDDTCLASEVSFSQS
# assayComment: qHTS for Small Molecule Agonists and Allosteric Enhancers of Human TRH Receptor: Validation Screen for Agonists (AID 493127);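 further: intracellular calcium rise by fluo-8 fluorescence before TRH EC20 addition; 0% is about no effect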
# details: TRH receptor agonist cell assay; at 2 µM; stronger effect = higher value
measuredMetric: activation (%)
Answer with a number only, understood to be in %.

// below: answered compounds
compound	assayValue
COc1c2c(nc3ccccc13)OC(C(C)(O)CO)C2 (stereo not drawn)	0.812
OC[C@H]1O[C@@H](n2cnc3c(N[C@H]4CC5CCC4C5)ncnc32)[C@H](O)[C@@H]1O (stereo partly drawn)	0.875
Cc1ccccc1N1CCN(S(=O)(=O)C[C@]23CCC(CC2NC(=O)[C@@H](N)CCS(C)(=O)=O)C3(C)C)CC1 (stereo partly drawn)	1
O=[N+]([O-])c1ccc(CSc2ncnc3c2ncn3[C@@H]2O[C@H](CO)[C@H](O)[C@H]2O)cc1	0.688
CCCC(=O)NCCc1c2n(c3ccc(OC)cc13)Cc1ccccc1-2	-7.06
CN=C(N)NCCCC(N)C(=O)O (stereo not drawn)	0.812

Could you tell me which activation is on file for NC(=O)C1=CN(C2OC(COP(=O)(O)OP(=O)(O)OC[C@H]3O[C@@H](n4cnc5c(N)ncnc54)[C@H](OP(=O)(O)O)[C@H]3O)C(O)C2O)C=CC1 (stereo partly drawn) ? -0.125

Given CN1C2CCC1CC(NC(=O)c1nn(C)c3ccccc13)C2 (stereo not drawn) , state its recorded activation. 0.75

----------
Measured Potency of individual entries
# assayedTarget: Glucocorticoid receptor (Homo sapiens) (UniProt P04150)
# Sequence (P04150 whole entry, looked up): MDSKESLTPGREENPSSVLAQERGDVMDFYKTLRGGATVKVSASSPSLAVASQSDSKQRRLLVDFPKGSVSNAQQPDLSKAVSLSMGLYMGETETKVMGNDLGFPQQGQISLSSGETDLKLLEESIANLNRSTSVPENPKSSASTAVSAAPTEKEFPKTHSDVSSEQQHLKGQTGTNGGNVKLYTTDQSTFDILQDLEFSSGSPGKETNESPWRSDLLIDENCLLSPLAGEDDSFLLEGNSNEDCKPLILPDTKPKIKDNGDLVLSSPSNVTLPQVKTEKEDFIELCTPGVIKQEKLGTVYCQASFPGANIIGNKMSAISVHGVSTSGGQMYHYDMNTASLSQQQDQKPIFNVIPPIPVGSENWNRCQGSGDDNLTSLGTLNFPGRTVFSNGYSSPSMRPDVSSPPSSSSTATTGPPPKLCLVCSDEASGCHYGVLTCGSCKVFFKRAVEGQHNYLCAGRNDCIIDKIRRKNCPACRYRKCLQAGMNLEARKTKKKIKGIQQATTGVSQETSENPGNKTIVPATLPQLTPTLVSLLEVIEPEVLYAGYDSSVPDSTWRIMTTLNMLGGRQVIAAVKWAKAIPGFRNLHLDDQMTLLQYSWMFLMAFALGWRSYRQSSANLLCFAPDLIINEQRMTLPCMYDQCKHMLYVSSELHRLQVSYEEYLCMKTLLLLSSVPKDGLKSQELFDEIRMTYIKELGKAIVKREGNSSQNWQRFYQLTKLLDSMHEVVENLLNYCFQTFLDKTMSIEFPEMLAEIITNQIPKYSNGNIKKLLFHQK
# assayComment: GR-GFP Redistribution (AID 450); further: potency means the concentration at half of the fitted maximal effect
# details: U2OS GR-GFP nuclear translocation, laser cytometry, 2 h
The source made the active and inactive calls.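 The calls were made as follows: active = compounds whose dose series gives a full or clear partial fitted curve of increased nuclear translocation; inconclusive = weak partial curve or effect only at the top dose; inactive = no dose-dependent translocation response.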

chemicalSmiles	assayedTarget	Potency
COc1cccc(Nc2ncc3nc(C)c(=O)n(CCc4ccccc4)c3n2)c1	Glucocorticoid receptor (Homo sapiens) (UniProt P04150)	> 9.22 µM (inactive)
CN(C)c1ncc2nc(CCc3ccccc3)c(=O)n(C[C@H]3CCCO3)c2n1	Glucocorticoid receptor (Homo sapiens) (UniProt P04150)	> 9.22 µM (inactive)

Name the recorded Potency for `CN(C)c1ncc2nc(-c3ccccc3)c(=O)n(-c3ccccc3)c2n1` . > 9.22 µM (inactive)

Which Potency is listed for `Cc1nc2cncnc2n(C2CC2)c1=O` ? > 9.22 µM (inactive)

What value of measured Potency is listed for `COc1cccc(Nc2ncc3nc(C)c(=O)n(C)c3n2)c1` ? > 9.22 µM (inactive)

Fill blank: measured Potency of the compound `COCCn1c(=O)c(-c2ccc(Cl)cc2)nc2cnc(OCc3ccccc3)nc21` is ____. > 9.22 µM (inactive)

Record request: Potency value, item `CNc1ccnc(-c2ccccc2C(F)(F)F)n1` > 46 µM (inactive)
